Each recorded value in this set is attributed to patent US4965283A.

# Test system: maximum electroshock spasm (MES), extensor spasm in mice
# measurement description: MES test (maximum electroshock; inhibition of extensor spasm)
# Type: in vivo, male mice (NMRI)
# cond: 100 mg/kg, oral, 3 hrs after administration, n = 10
experimental endpoint: protective action [%] after 3 hrs
Number first, unit second: that is the form wanted.

{"columns": ["molecule", "experimental system", "protective action [%] after 3 hrs"],
 "data": [
  ["COC1=CC(=O)OC1C(OC(=O)[C@@H]1CCCN1)c1ccccc1F (single isomer, unassigned) [129 A]", "maximum electroshock spasm (MES), extensor spasm in mice", "100%"]
]}

Look up protective action [%] after 3 hrs: Br.COC1=CC(=O)OC1C(OC(=O)CN)c1ccccc1Cl (single isomer, unassigned; (-)) [Example 153] 0%

Likewise for COC1=CC(=O)O[C@H]1[C@H](OC(=O)[C@@H]1CCCN1)c1ccccc1Cl [104 B] ? 0%

Likewise for COC1=CC(=O)OC1C(OC(=O)[C@@H]1CCCN1)c1ccccc1F (single isomer, unassigned) [129 B] ? 0%
